- Tested on: 292921-168-R-J2-PDC KRAS tumor spheroid viability;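 note: drug exposure lasted seven days after spheroids formed for three days; percent of DMSO vehicle control viability which is 100%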
- Experiment notes: Anticancer human tumor 292921-168-R-J2-PDC patient-derived pancreatic carcinoma cell line growth inhibition [KRAS2]
- Assay context: second compound 3.16 µM; first compound 0.1 µM; hits give low values; spheroids with HUVEC and MSC
Could you mark each record label 1 if its viability, T/C falls strictly under 1%, and label 0 if it equals or exceeds it?

Compound	Tested on	Class name
CC(C)n1nc(-c2ccc3oc(N)nc3c2)c2c(N)ncnc21 + C=CC(=O)N1CCN(c2nc(OCC3CCCN3C)nc3c2CCN(c2cccc4cccc(C)c24)C3)CC1CC#N	292921-168-R-J2-PDC KRAS tumor spheroid viability	label 1
CC1COCCN1c1cc(-c2ccnn2C)c2ccnc(-c3ccn[nH]3)c2n1 (configuration not stated) + CNCc1ccccc1-c1csc(C(C)Nc2nc(C)nc3cc(OC)c(OC)cc23)c1	292921-168-R-J2-PDC KRAS tumor spheroid viability	label 1
Cn1ncnc1[C@H]1c2n[nH]c(=O)c3cc(F)cc(c23)N[C@@H]1c1ccc(F)cc1 + CNCc1ccccc1-c1csc(C(C)Nc2nc(C)nc3cc(OC)c(OC)cc23)c1	292921-168-R-J2-PDC KRAS tumor spheroid viability	label 1
CC(C)NCC(C(=O)N1CCN(c2ncnc3c2C(C)CC3O)CC1)c1ccc(Cl)cc1 (configuration not stated) + COc1cc2nc(C)nc(NC(C)c3cc(N)cc(C(F)(F)F)c3)c2cc1OC1CCOC1	292921-168-R-J2-PDC KRAS tumor spheroid viability	label 0
COc1cc(Nc2ncc3c(n2)-c2ccc(Cl)cc2C(c2c(F)cccc2OC)=NC3)ccc1C(=O)O + CNCc1ccccc1-c1csc(C(C)Nc2nc(C)nc3cc(OC)c(OC)cc23)c1	292921-168-R-J2-PDC KRAS tumor spheroid viability	label 1
Cn1nccc1Nc1nccc(-c2cc3c(s2)C(C)(C)N(CCN2CCOCC2)C3=O)n1 + C=CC(=O)N1CCN(c2nc(OCC3CCCN3C)nc3c2CCN(c2cccc4cccc(C)c24)C3)CC1CC#N	292921-168-R-J2-PDC KRAS tumor spheroid viability	label 1
COc1cc2nccc(Oc3ccc(NC(=O)C4(C(=O)Nc5ccc(F)cc5)CC4)cc3)c2cc1OC + COc1cc2nc(C)nc(NC(C)c3cc(N)cc(C(F)(F)F)c3)c2cc1OC1CCOC1	292921-168-R-J2-PDC KRAS tumor spheroid viability	label 0
CCN1CCN(Cc2ccc(Nc3ncc(F)c(-c4cc(F)c5nc(C)n(C(C)C)c5c4)n3)nc2)CC1 + C=CC(=O)N1CCN(c2nc(=O)n(-c3c(C)ccnc3C(C)C)c3nc(-c4c(O)cccc4F)c(F)cc23)C(C)C1	292921-168-R-J2-PDC KRAS tumor spheroid viability	label 0
COc1cc(Nc2ncc3c(n2)-c2ccc(Cl)cc2C(c2c(F)cccc2OC)=NC3)ccc1C(=O)O + C=CC(=O)N1CCN(c2nc(=O)n(-c3c(C)ccnc3C(C)C)c3nc(-c4c(O)cccc4F)c(F)cc23)C(C)C1	292921-168-R-J2-PDC KRAS tumor spheroid viability	label 0
CC(C)n1nc(-c2ccc3oc(N)nc3c2)c2c(N)ncnc21 + CC1OCC2(CCN(c3cnc(Sc4ccnc(N)c4Cl)c(N)n3)CC2)C1N	292921-168-R-J2-PDC KRAS tumor spheroid viability	label 0
CN(C)C/C=C/C(=O)Nc1cc2c(Nc3ccc(F)c(Cl)c3)ncnc2cc1O[C@H]1CCOC1 + CC1OCC2(CCN(c3cnc(Sc4ccnc(N)c4Cl)c(N)n3)CC2)C1N	292921-168-R-J2-PDC KRAS tumor spheroid viability	label 0
CN(C)C/C=C/C(=O)Nc1cc2c(Nc3ccc(F)c(Cl)c3)ncnc2cc1O[C@H]1CCOC1 + CNCc1ccccc1-c1csc(C(C)Nc2nc(C)nc3cc(OC)c(OC)cc23)c1	292921-168-R-J2-PDC KRAS tumor spheroid viability	label 0
